Procedure Text: Cmax in rat at 3 mg/kg, po
Assay type: ADME, organism-based
Set-up: dose 3 mg/kg, route oral
Run Conditions: in vivo
Quantity Name: Cmax (ng/mL)
Numbers only, in ng/mL.

[ask] // returns reported Cmax for input Cc1ncccc1N1C[C@@H](C(=O)NCc2ccc(Cl)cc2Cl)N(C)C1=O
[reply] 1070

---

Kindly state half-life for each of the entries shown.
Procedure Text: Half life in rat at 1 mg/kg, iv and 3 mg/kg, po
Format: ADME, organism-based
Run Conditions: in vivo
Answers are plain numbers, in h.

>>> reported_measurement("CN1C(=O)NC[C@H]1C(=O)NCc1ccc(Cl)cc1Cl")
2.8

# evaluate next
[ask] Dear colleague, I am looking for the recorded half-life of the following compound: CN1C(=O)CC[C@H]1C(=O)NCc1cccc(C(F)(F)F)c1Cl
[reply] 1.5

---

Procedure Text: Half life in rat at 3 mg/kg, po
Format: ADME, organism-based
Set-up: dose 3 mg/kg, route oral
Run Conditions: in vivo
Quantity Name: half-life

[ask] Bench note: what half-life did Cc1ncccc1N1C[C@@H](C(=O)NCc2ccc(Cl)cc2Cl)N(C)C1=O show?
[reply] 2.3 h

---

Procedure Text: Volume of distribution at steady state in monkey at 1 mg/kg, iv and 3 mg/kg, po
Type: ADME, organism-based, Macaca mulatta
Run Conditions: rhesus monkey, in vivo, read-out: Vdss
Please go through the items and note down their Vd.
Numbers only, in L/kg.

>>> reported_measurement("CN1C(=O)CC[C@H]1C(=O)NCc1cccc(C(F)(F)F)c1Cl [GSK1482160]")
1.1

Now look at this entry.
[ask] So what does the record say about Vd for CN1C(=O)NC[C@H]1C(=O)NCc1ccc(Cl)cc1Cl ?
[reply] 1.2

---

Target Or Test System: P2X purinoceptor 7 (Homo sapiens, UniProt Q99572)
Sequence (Q99572 whole entry): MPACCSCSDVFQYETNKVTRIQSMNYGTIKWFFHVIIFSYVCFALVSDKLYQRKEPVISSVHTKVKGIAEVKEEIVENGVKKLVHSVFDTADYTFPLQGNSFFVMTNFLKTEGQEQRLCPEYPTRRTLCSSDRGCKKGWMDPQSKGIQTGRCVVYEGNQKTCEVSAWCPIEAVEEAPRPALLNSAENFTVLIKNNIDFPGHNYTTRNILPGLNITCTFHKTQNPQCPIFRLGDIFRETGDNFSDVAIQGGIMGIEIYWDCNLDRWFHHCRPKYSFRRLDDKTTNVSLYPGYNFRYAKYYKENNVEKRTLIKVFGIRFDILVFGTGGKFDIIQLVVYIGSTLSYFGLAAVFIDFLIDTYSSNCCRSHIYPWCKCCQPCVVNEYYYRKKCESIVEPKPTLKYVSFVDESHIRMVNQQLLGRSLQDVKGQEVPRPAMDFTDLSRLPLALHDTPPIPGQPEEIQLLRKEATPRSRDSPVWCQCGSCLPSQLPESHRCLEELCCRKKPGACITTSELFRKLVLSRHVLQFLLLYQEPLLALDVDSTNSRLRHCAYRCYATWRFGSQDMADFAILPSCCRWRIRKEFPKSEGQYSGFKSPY
Procedure Text: Antagonist activity at human recombinant P2X7 receptor expressed in HEK293 cells by ethidium accumulation assay
Entries whose IC50 is below 4 nM take 1; entries at or above 4 nM take -1.

[ask] Report whether reported IC50 is lower than 4 nM (strictly) for CN1C(=O)NC[C@H]1C(=O)NCc1ccc(Cl)cc1Cl
[reply] -1

[ask] Can you handle CN1C(=O)N(c2cn(C)cn2)C[C@H]1C(=O)NCc1cccc(C(F)(F)F)c1Cl next?
[reply] 1

[ask] Record: CN1C[C@@H](C(=O)NCc2cccc(Cl)c2Cl)N(C)C1=O
[reply] -1

[ask] Note, next up: Cc1cc(N2C[C@@H](C(=O)NCc3cccc(C(F)(F)F)c3Cl)N(C)C2=O)ccn1
[reply] -1
